test: yeast display, Sf9 membrane polyspecificity reagent, FACS + sequencing; frameworks hold sequencing errors
READOUT_NAME: polyreactivity (PSR sort gate)

Example entries and their recorded answers appear below.
SEQUENCE_INPUT	TEST_RESULT
QVQLVESGGGLVQAGGSLRLSCDASGGIFYGYAMGWYRQAPGKERELVAAISDSGGSTYYSDSVKGRFTITRDNAKNNVYLQMNSLKPEDTAVYYCATDAPVGGYVSEGDYWGQGTQVTVSS	low polyreactivity
QVQLVESGGGLVQAGGSLRLSCAASGSIFSLYAMGWYRPAPGKERELVAGISRSGGSTYYADSVKGRFTISRDNAKNTVYLQMNSLKPEDTAVYYCAARVKVRDFKGYYWGQGTQVTVSS	high polyreactivity
QVQLVESGGGLVQAGGSLRLSCAASGLTFGGNAMGWYRQAPGKERELVAGISWSGGNTNYADSVKGRFTISRDNAKNTVYLQMNSLKPEDNAVYYCNKATNLSGGYDSWGQGTQVTVSS	low polyreactivity
QVQLLESGGGLLQAGGSLRLSCAASGSIFDFNAMGWYRQAPGKERELVAAITYIGDSTYYADSVKGRFTISRDNAKNTVYLQMNILKPEDTAVYYCANYRYPSRQYSFPLGYDYWGQGTQVTVSS	high polyreactivity
QVQLVESGGGLVQAGGSLRLSCAASGRNFRLNAMGWYRQAPGKERDLVARITGSYGGSTYYADSVKGRFTISRDNAKNTVSLQMISLKPEDSAGYYCADDGTGSYKGYYWGLGTQVTVSS	high polyreactivity
QLQLVESVGGLDQAGGSLRLSCAASRSNFGPYAIGWYRQAPGKERELVAAITWSGDSTYYADSVKGRFTISRDNEKNTVYLQMNSLKPEDTAVYYCAAETFIWGKGTQVTVSS	low polyreactivity

Consider the sequence shown here: QVQLVESGGGLVQAGGSLRLSCAASGSIFSEYAMGWYRQAPGKERELVAAINDGGGSTYYADSVKGRFTISRDNAKNTVYLQMNSLKPEDTAVYYCAAETVRWWWLYDYWGQGTQVTVSS What is its recorded polyreactivity (PSR sort gate)?
high polyreactivity

Consider the sequence shown here: QVQLVESGGGLVQAGGSLRLSCAASGSIFFINAMGWYRQAPGKERELVAAIRRGGSTYADSVKGRFTISRDNAKNTVYLQMNSLKPEDTAVYYCAARITWGATAKSRYSYLYDYWGQGTQVTVSS What is its recorded polyreactivity (PSR sort gate)?
high polyreactivity

Consider the sequence shown here: QVQLVESGGGLVQAGGSLRLSCAASGSTFDYNAMGWYRQAPGKERELVAAISSGSRTNYADSVKGRFTISRDNAKNTVYLQMNSLKPEDTAVYYCAAKAYFYRRTQSRFSLYYYWGQGTQVTVSS What is its recorded polyreactivity (PSR sort gate)?
high polyreactivity

Consider the sequence shown here: QVQLVESGGGLVQAGGSLRLSCADSGNTFSYYAMGWYRQAPGKEREFVAAIRKSGASTYYADSVKGRFTISRDNAKNTVYLEMNSLKPEDTAVYYCAADGQVSYALGFDYCGQGTQVTVSS What is its recorded polyreactivity (PSR sort gate)?
high polyreactivity

Consider the sequence shown here: QVQLVESGGGLVQAGGSLRLSCAASGRTFYRNAMGWYRQAPGKERELVAAISRSGGRTYYADSVKGRFTISRDNAKNTVYLQMNSLKPEDTAVYYCNAQPTLAVADYDYWGQGTQVTVSS What is its recorded polyreactivity (PSR sort gate)?
high polyreactivity

---

test: yeast display, Sf9 membrane polyspecificity reagent, FACS + sequencing; frameworks hold sequencing errors
READOUT_NAME: polyreactivity (PSR sort gate)

SEQUENCE_INPUT	polyreactivity (PSR sort gate)
QVQLVESGGGLVQAGGSLRLSCAASGRTFYHYAMGWYRQAPGKERELVAAITYRGGNTYYADSVKGRFTISRDNAKNTVYLQMNSLKPEDTAVYFCAKQGVRRHYGYDYWGQGTQVTVSS	high polyreactivity
QVQLVESGGGLVQAGGSLRLSCASSGGTFSPYAMVWYIQAPGKEREMVAVIRSDVTTNYADSVKGRFTISRDNAKNTLYLQMNRLKPEDTAVYYCAVQYLGYGGLFPLDYWGQGTQVTVSS	low polyreactivity
QVQLVESGGGLVQAGGSLRLSCAASGSTFAVNVMGWYRQAPGKERELVATITYRDGRTYYADSVKGRFTISRDIAKYTVFLQMNSLKPEDTAVYYCAADDEYTQEAEMDSWGQGTQVTVSS	low polyreactivity
QVQLVESGGGLVQAGGSLRLSCAASGSIFDKNAMGWYRQAPGKERELVAAIRRTSTTYYADSVKGRFTISRDNAKKTVYLQMNSLKPEDTAVYYCAATYGSGYWYPRYYYWGQGTQVTVSS	high polyreactivity
QVQLVESGGGLVQAGGSLRLSGAASGLIFWGYTMGWYRQAPGKERVLVAAISRRGGRTYYADSVKGRFTISRDNAKNTVYLQMHSLKPEDTAVDYCNADITSSGPKSDYWGQGTQVTVSS	high polyreactivity

Consider the sequence shown here: QVKLVESGGGLVQAGGSLRLSCAASGFTFRRYAMGWYRQAPGKERELVAGITSGGSTYYADSVKGRFTISRDNAKNTVYLQMNSLKPEDTAVYYCNTKVISRTSERRGNGFTRYDYWGQGTQVTVSS What is its recorded polyreactivity (PSR sort gate)?
low polyreactivity

Consider the sequence shown here: QVQLVESGGGLVQAGGSLRLSCAASGSIFSFYAMGSYRQAPGKERELVAAISWSGGSTYYADSVKGRFTISRDNAKNTVYLLMNSLKPEDTAVYYCAREKAVSYYGYDHWGQGTQVTVSS What is its recorded polyreactivity (PSR sort gate)?
low polyreactivity

Consider the sequence shown here: QVHLVDSGGGLVQAGGSLRLTCAASGSSFWAYVMGWYRQAPGKERELVAAISKSGVRTHYADSVKGRFTISRDNAKTTFYLQMNSLKPEDTAVYYFAAVGFGNLDDYWGQGTQVTVSS What is its recorded polyreactivity (PSR sort gate)?
high polyreactivity

Consider the sequence shown here: QVQLVESGGGLVQAGGSLRLSCAASGSIFRSYAMGWYSQAPGKERELVASISRRGGSTYYADSVKGRFTMSRDHAKNTVYLQMNSLKPEDTAVYYCAAVRYNSRVSTTPSEMYYWGQGTQVTVSS What is its recorded polyreactivity (PSR sort gate)?
low polyreactivity

Consider the sequence shown here: QVQLVESGGGLVQAGGSLSLICAASGSTFTENAMGWYRQAPGKERELVAVITSSDGTTYYADSVKGRFTISRDNAKNTVYLQMISLKPEDTAVSYCAADPYYFWWRYDFWGQGTQVTVSS What is its recorded polyreactivity (PSR sort gate)?
low polyreactivity

Consider the sequence shown here: QVQLVESGGGLFQAGGSLRLSCAASGSTFYTNAMGWYRQAPGKERELVAAISWSGGSTYYADSVKGRFTIARDNAKNPVYLQLNSLKPEDTAVYYCDVSGTHFRYDYWGQGTQVTVSS What is its recorded polyreactivity (PSR sort gate)?
high polyreactivity

---

test: yeast display, Sf9 membrane polyspecificity reagent, FACS + sequencing; frameworks hold sequencing errors
READOUT_NAME: polyreactivity (PSR sort gate)

Example entries and their recorded answers appear below.
SEQUENCE_INPUT	polyreactivity (PSR sort gate)
PVQLVESGGGLVQAGGSLRLTCAASGRIFTGYAMGWYRQAPGKERELVAAISRGGSTNYADSVKGRFTISRDNEKNTVYLLMNSLKPEDTAFYYCAAGFDWDRGDYWGQGTQVTVSS	low polyreactivity
QVQLVESWGGLVQAGGSLRLSCAASGFTFNANAMGWYRQAPGKERELVAAISLSGGRTYYADSVKGRFTISRDNEKNTVYLQMNSLKPVDTAVYYCAASPDGSFRRFSRVVSGDYWGQGTQVTVSS	high polyreactivity
QVQLVESGGGLVQAGGSLRISCAPSGGILYHYVMGWYRQAPGTERELVAAISRAGRTYYADSVKGRFTISRDNAKNTVYLQMNSLKPEDTAVYYCNAYFRYFYWGLGTQVTVSS	high polyreactivity
QVQLVESGGGLVQAGGSLRLSCAASGSISVVNMGWYRQAPGKERELVASITSSGSTTYADSVKGRFTISRDNAKNTVYLQMNSLKPEDTAGYYCAASSTGYGGSTYYYWGQGTQVTVSS	low polyreactivity
QVQLVESGGGLVQAGGSLRLSFAASGLTFYTNAMGWYRQAPGKETELVATITSGGRTSYADSVKGRFTISRDNAKNTVYLEMNRLKPEDTAVYYCADTTGWYGARYGYWGQGTQVTVSS	high polyreactivity
PVQLVESGGGLVQAGGSLRLSCAASGNAMGWYRQAPGKERELVASINRSGGRTYYADSVKGRFTISRDNAKNTVYLQMNSLKPEDTAVYYCAARPHYDSDYWGQGTQVTVSS	low polyreactivity

Consider the sequence shown here: QVQREESGGGLVQAGGSLRLSCAASGFIFDNNAMGWYRQAPGKERELVAAISSADSTNYADSEKGRFSISRDNAKNTVYLQMNSLKPEDTAVYSCNRSQGGEKGWFHYDSWGQGTQVTVSS What is its recorded polyreactivity (PSR sort gate)?
low polyreactivity

Consider the sequence shown here: QVQLVESGGGLVQAGGSLRLSCAASGSTFDSYARVWYRQAPGKETELVARISIVGSTNYADSVKGRFTISRANAKNTVYLQMNCLKPDDTAVYYCAADRDWQYSFRHSVYGYDYDYWGQGTLVTVSS What is its recorded polyreactivity (PSR sort gate)?
low polyreactivity

Consider the sequence shown here: QVQLVESGGGLVQAGGSLRLSCAASGLIFYYYALAWYRQAPGKERELVAAITWTAGSTSYADSVKGRFTISRDNAKNTVYLQMNRLKPEDTAVYYCAADYRHDTFSNEYDYWGQGTQVTVSS What is its recorded polyreactivity (PSR sort gate)?
low polyreactivity

Consider the sequence shown here: QFQLVESGGGLVQAGVSLRLSCAASGSIIKYYAMGWYRQAPGKERELVATINWNGGSTYYADSVKGRFTISRDNAKNTVYLQMNSLKPEDTAVYYCAAGYRGSYYHSHYEYLGQGTQVTVSS What is its recorded polyreactivity (PSR sort gate)?
high polyreactivity

Consider the sequence shown here: QVQLVESGGGLVQAGGSLRLSCAASGSTFYPYTMGWYRQAPGKERELVASISTTGGSTNYADSVKGRFTISRDNAKNTVYLQMNSLKPEDTAVYYCAARSNYTRRLYYYYWGLGTQVTVSS What is its recorded polyreactivity (PSR sort gate)?
high polyreactivity

Consider the sequence shown here: QVQLVESGGGLVQAGGSLRLSCAASGFTFYGNAMGWYRHAPGKERELVAAIRSGGITYYADSVKGRFTISRDNAKNTVYLQMNSLKPEDTSVYYCAAYSDYYLDQWYGYWGQGTQVTVSS What is its recorded polyreactivity (PSR sort gate)?
low polyreactivity

Consider the sequence shown here: QVQLVESGGGLVQAGGSLRLSCAASGNIFSFYTMGWYRQAPGKERELVAAISWSGTSTYYADSVKGRFTISRDNAKNTVYLQMNSLKPEDTAVYYCAAVRRISRYDYWGQGTQVTVSS What is its recorded polyreactivity (PSR sort gate)?
high polyreactivity

Consider the sequence shown here: QVQLVESGGGLVQAGGSLRLSSAASGRTFSAYAMGWYRQAPGKERELVARITSVDSTNYADSVKGRFTISRDNAKNTVYLQMNSLKPEDTAVYYCNVVNEHQSDFVVPFDYNHWGQGTQVTVSS What is its recorded polyreactivity (PSR sort gate)?
low polyreactivity

Consider the sequence shown here: QVQLQESGGGLVLAGGSLRLSCSASGNNSVYGSMGWYRQAPGKEREFVATIDPGTNTNYADSVKDRFTISRDNAKNTVYLQMNSLKPEDTAVYYCAVEAGSDWPYRYWGQGTQVTVSS What is its recorded polyreactivity (PSR sort gate)?
low polyreactivity

Consider the sequence shown here: QVQLVESGGGLFQAGGSLRLSCAASGRTFDDYAMGWYRQAPGKERELVAGITDNGGGTNYADSVKGRFTISRDNAKNTVYLQMNSLKQEDTAVYYCAAGETFEMYYWGQVTQVTVSS What is its recorded polyreactivity (PSR sort gate)?
low polyreactivity

Consider the sequence shown here: QVQLVESGGGLVQAVGSLRLSCAASASIFRNNAMGWYRQAPGKERELVASISSSGDNTNYADSVKGRFTISRDNAKNTVYLQMNSLKPEDTAVYYCAAANKGPDQADYHYDQWGQGTQVTVSS What is its recorded polyreactivity (PSR sort gate)?
low polyreactivity

Consider the sequence shown here: QVQLVESRGGLVQAGGSLRLSCAASGRIYSVYDMGWYRQAPGKESEFVAAIRSSGDSTYYADSVKGRFTISRDNAKNTVYLQMNSLKPDDTAVYYCAADVYRYRVRGLNYWGQGTQVTVSS What is its recorded polyreactivity (PSR sort gate)?
high polyreactivity

Consider the sequence shown here: QVQLVESGGGLVQAGGSLRLSCAASGSTFPPNAMGWYRQSPGKERELVAVISYSDGSTYYADSVKGRFTISRDNAKNTVYLQMNSLKPEDTAVYYCAAYCGYGGVSMYYWGQGTQVTVSS What is its recorded polyreactivity (PSR sort gate)?
low polyreactivity

Consider the sequence shown here: QVQLVESGGGLVQAGGSLRLSCAASGSTFWYYAMGWYRQAPGKERELVAAIRWSDGSTYYADSVKGRFTISRDNAKNTVYLQMNSLKPEDTAVYYCEYYYWGQGTQVTVSS What is its recorded polyreactivity (PSR sort gate)?
low polyreactivity

Consider the sequence shown here: QVQLVESGGGLVQAGGSLRLSCAASGFILRYYAMGWYRQPPGKERELVAAISWSGGSTYYADSVMGRFTISRDNAKNTVYLQMNSLKPEDTAVYYCAADRYAILFYAEDYWGQGTQVTVSS What is its recorded polyreactivity (PSR sort gate)?
low polyreactivity

Cited source: the nanobody polyreactivity screen of Harvey et al. (2022)
